Entries and their Pre-emergence herbicidal damage score, ABUTH
- System: a variety of test species
- Assay notes: Pre-emergence herbicidal activity (glasshouse, sprayed one day after sowing, evaluated after 13 days)
- Assay type: in vivo
- Condition notes: ABUTH, application pre-emergence, rate 1000 g/Ha, scale 0-5
Note: the reply should be a number with no unit written.

CC1=C(Cl)C(=O)N(c2cc(C(C)(C)C)on2)C1OC(=O)c1ccc(C(F)(F)F)nc1 (stereo not shown) [A90] : 4
CCSC(=O)OC1C(C)=C(Cl)C(=O)N1c1cc(C(C)(C)C)on1 (stereo not shown) [A78] : 5
CC(C)(C)c1cc(N2C(=O)C(Cl)=C(NC3CCC3)C2O)no1 (stereo not shown) [C9] : 0
COC1=C(Cl)C(=O)N(c2cc(C(C)(C)C)on2)C1O (stereo not shown) [B1] : 5
COC1=C(C)CN(c2noc(C(C)(C)C)c2C#N)C1=O [D11] : 4

Reported Pre-emergence herbicidal damage score, ABUTH for CC1=C(Cl)C(=O)N(c2cc(C(C)(C)C)on2)C1OC(=O)OCC(C)C (stereo not shown) [A80] was 5

Pre-emergence herbicidal damage score, ABUTH in this record for CCCC1=C(Cl)C(=O)N(c2noc(C)c2C#N)C1O (stereo not shown) [A70] : 0

Recorded Pre-emergence herbicidal damage score, ABUTH (compound CC1=C(Cl)C(=O)N(c2cc(C(C)C)on2)C1O (stereo not shown) [A11] ): 5

# Pre-emergence herbicidal damage score, ABUTH (compound: CC1=C(Br)C(=O)N(c2noc(C(C)C)c2C#N)C1O (stereo not shown) [A61] ) is 5

The recorded Pre-emergence herbicidal damage score, ABUTH for entry COC1=C(C)C(OC(C)=O)N(c2cc(C(C)(C)C)on2)C1=O (stereo not shown) [D7] equals 5

Looking up CC1=C(Cl)C(=O)N(c2noc(C(C)(C)C)c2C#N)C1OC(=O)C(C)(C)C (stereo not shown) [A95] , I see its Pre-emergence herbicidal damage score, ABUTH listed as 4

Lab book: Pre-emergence herbicidal damage score, ABUTH of CCC(C)(C)c1onc(N2C(=O)C(OC)=C(C)C2O)c1C#N (stereo not shown) [D5] noted as 5

Field Pre-emergence herbicidal damage score, ABUTH (entry COC1=C(Cl)C(OC(C)=O)N(c2cc(C(C)(C)C)on2)C1=O (stereo not shown) [E2] ) reads 5

get_value(item= CC1=C(Br)C(=O)N(c2cc(C(C)(C)C)on2)C1O (stereo not shown) [A1] , readout=Pre-emergence herbicidal damage score, ABUTH) returns 5

The compound CC(C)C1=C(Cl)C(=O)N(c2cc(C(C)(C)C)on2)C1O (stereo not shown) [A18] showed Pre-emergence herbicidal damage score, ABUTH equal to 4

----------
Entries and their Pre-emergence herbicidal damage score, ECHCG values follow.
- System: a variety of test species
- Assay notes: Pre-emergence herbicidal activity (glasshouse, sprayed one day after sowing, evaluated after 13 days)
- Type: in vivo
- Condition notes: ECHCG, application pre-emergence, rate 1000 g/Ha, scale 0-5
// no unit string in output, number only

// Pre-emergence herbicidal damage score, ECHCG lookup, compound = CCCC1=C(Br)C(=O)N(c2noc(C(C)(C)C)c2C#N)C1O (stereo not shown) , result: 4

The value of Pre-emergence herbicidal damage score, ECHCG measured for the compound CC1=C(Cl)C(=O)N(c2cc(C(C)(C)C#N)on2)C1O (stereo not shown) turned out to be 4

Recorded Pre-emergence herbicidal damage score, ECHCG (compound CC1=C(Cl)C(=O)N(c2noc(C(C)(C)C)c2C#N)C1O (stereo not shown) ): 5

Notebook: `COC1=C(C)CN(c2noc(C(C)(C)C)c2C#N)C1=O` , Pre-emergence herbicidal damage score, ECHCG read as 5

----------
- System: a variety of test species
- Assay notes: Pre-emergence herbicidal activity (glasshouse, sprayed one day after sowing, evaluated after 13 days)
- Format: in vivo
- Condition notes: ABUTH, application pre-emergence, rate 1000 g/Ha, scale 0-5
- Procedure: Seeds of a variety of test species were sown in standard soil in pots. […] After 13 days, the test was evaluated (5=total damage to plant; 0=no damage to plant).
Endpoint: Pre-emergence herbicidal damage score, ABUTH
The reply should be a number, written without any unit.

Use the examples below as a reference point.
CN(C)C1=C(Cl)C(=O)N(c2cc(C(C)(C)C)on2)C1O (stereo not shown) [C2] : 1
CCC(C)(CC)c1onc(N2C(=O)C(Cl)=C(C)C2O)c1C#N (stereo not shown) [A45] : 4
COC1=C(C)C(O)N(c2noc(C(C)C)c2C#N)C1=O (stereo not shown) [D3] : 4
C=C(C)CNC1=C(Cl)C(=O)N(c2cc(C(C)(C)C)on2)C1O (stereo not shown) [C3] : 5
COCC(C)(C)c1cc(N2C(=O)C(C)=C(OC)C2O)no1 (stereo not shown) [G3] : 5
CNC1=C(Cl)C(=O)N(c2cc(C(C)(C)C)on2)C1O (stereo not shown) [C1] : 3

According to the records, this molecule CCOC(=O)OC1C(C)=C(Cl)C(=O)N1c1noc(C(C)(C)C)c1C#N (stereo not shown) [A96] displays Pre-emergence herbicidal damage score, ABUTH of 5

Record CCC1=C(Cl)C(=O)N(c2cc(C(C)(C)C#N)on2)C1O (stereo not shown) [A64] , field Pre-emergence herbicidal damage score, ABUTH: 4

Noted for COC1=C(Cl)CN(c2cc(C(C)(C)C)on2)C1=O [E3] : its Pre-emergence herbicidal damage score, ABUTH reads 2

Item: CCCC1=C(Cl)C(=O)N(c2noc(C(C)(C)C)c2C#N)C1O (stereo not shown) [A54] | Pre-emergence herbicidal damage score, ABUTH: 5

Sample CC(C)(C)c1cc(N2C(=O)C(Cl)=C(NCC3CC3)C2O)no1 (stereo not shown) [C4] ; Pre-emergence herbicidal damage score, ABUTH observed: 5

// Pre-emergence herbicidal damage score, ABUTH value for CC1=C(Cl)C(=O)N(c2noc(C(C)(C)C)c2C#N)C1Cl (stereo not shown) [A97] : 5

# Pre-emergence herbicidal damage score, ABUTH of CC1=C(Cl)C(=O)N(c2cc(C3(C)CC3)on2)C1O (stereo not shown) [A26] = 5

Pre-emergence herbicidal damage score, ABUTH measured on CCC(C)(CC#N)c1cc(N2C(=O)C(Cl)=C(C)C2O)no1 (stereo not shown) [A59] = 5

Entry CC1=C(Cl)C(=O)N(c2cc(C(C)(C)C)on2)C1OC(=O)c1sccc1Cl (stereo not shown) [A91] ; Pre-emergence herbicidal damage score, ABUTH = 1

get_value(item= CC(=O)OC1C(C)=C(Cl)C(=O)N1c1noc(C(C)(C)C)c1C#N (stereo not shown) [A94] , readout=Pre-emergence herbicidal damage score, ABUTH) returns 5

Sure, the documented Pre-emergence herbicidal damage score, ABUTH for CCCC1=C(Br)C(=O)N(c2noc(C(C)(C)C)c2C#N)C1O (stereo not shown) [A51] is 4

The molecule listed as CCOCC(C)(C)c1cc(N2C(=O)C(Cl)=C(C)C2O)no1 (stereo not shown) [A34] has a reported Pre-emergence herbicidal damage score, ABUTH of 5

Lab note: COC1=C(C)C(O)N(c2cc(C(C)(C)C#N)on2)C1=O (stereo not shown) [D4] gave Pre-emergence herbicidal damage score, ABUTH of 5

Kindly note the recorded Pre-emergence herbicidal damage score, ABUTH for CCC(=O)OC1C(C)=C(Cl)C(=O)N1c1cc(C(C)(C)C)on1 (stereo not shown) [A93] , which is 5

The value of Pre-emergence herbicidal damage score, ABUTH measured for the molecule CCOC1=C(C)C(O)N(c2cc(C(C)(C)C#N)on2)C1=O (stereo not shown) [D6] turned out to be 5

For reference, reported Pre-emergence herbicidal damage score, ABUTH for C=CC(C)(C)c1onc(N2C(=O)C(Cl)=C(C)C2O)c1C#N (stereo not shown) [A66] stands at 5

----------
- Tested on: a variety of test species
- Assay notes: Pre-emergence herbicidal activity (glasshouse, sprayed one day after sowing, evaluated after 13 days)
- Format: in vivo
- Condition notes: ZEAMX, application pre-emergence, rate 1000 g/Ha, scale 0-5
Endpoint: Pre-emergence herbicidal damage score, ZEAMX
// no unit, no text: just the number

Examples with answers:
CC1=C(Cl)C(=O)N(c2cc(C(C)(C)C#N)on2)C1 : 2
CCOCCNC1=C(Cl)C(=O)N(c2cc(C(C)(C)C)on2)C1O (stereo not shown) : 0
CCC1=C(Br)C(=O)N(c2noc(C(C)(C)C)c2C#N)C1O (stereo not shown) : 3
CC1=C(Cl)C(=O)N(c2cc(C(C)(C)C)on2)C1OC(=O)C(C)C (stereo not shown) : 3
C=COC(=O)OC1C(C)=C(Cl)C(=O)N1c1cc(C(C)(C)C)on1 (stereo not shown) : 4

Record CCC(C)(CC)c1onc(N2C(=O)C(Cl)=C(C)C2O)c1C#N (stereo not shown) , field Pre-emergence herbicidal damage score, ZEAMX: 2

Record summary for `COC1=C(C)CN(c2noc(C(C)C)c2C#N)C1=O` : reported Pre-emergence herbicidal damage score, ZEAMX = 2

The compound listed as CC1=C(Cl)C(=O)N(c2noc(C(C)(C)C)c2C#N)C1O (stereo not shown) has a reported Pre-emergence herbicidal damage score, ZEAMX of 3

Input CC(=O)OC1C(C)=C(Cl)C(=O)N1c1noc(C(C)(C)C)c1C#N (stereo not shown) . Output Pre-emergence herbicidal damage score, ZEAMX: 3

The reported Pre-emergence herbicidal damage score, ZEAMX of the compound CCC(C)(CC)c1cc(N2C(=O)C(Cl)=C(C)C2O)no1 (stereo not shown) was 2

Sample CC(C)(C)c1cc(N2C(=O)C(Cl)=C(N)C2O)no1 (stereo not shown) ; Pre-emergence herbicidal damage score, ZEAMX observed: 4

// field: Pre-emergence herbicidal damage score, ZEAMX; key: CCC1=C(Cl)C(=O)N(c2cc(C(C)(C)C#N)on2)C1O (stereo not shown) ; value = 1

Item: CC1=C(Cl)C(=O)N(c2cc(C(C)(C)C)on2)C1OC(=O)OCC(C)(C)C (stereo not shown) | Pre-emergence herbicidal damage score, ZEAMX: 3

For reference, reported Pre-emergence herbicidal damage score, ZEAMX for CC1=C(Br)C(=O)N(c2cc(C(C)(C)C#N)on2)C1O (stereo not shown) stands at 4

# Pre-emergence herbicidal damage score, ZEAMX of CC1=C(Cl)C(=O)N(c2cc(C(C)C)on2)C1O (stereo not shown) = 2

The measured Pre-emergence herbicidal damage score, ZEAMX associated with CC1=C(Cl)C(=O)N(c2cc(C3CC3)on2)C1O (stereo not shown) reads 1

// CC#CCOC(=O)OC1C(C)=C(Cl)C(=O)N1c1cc(C(C)(C)C)on1 (stereo not shown) : Pre-emergence herbicidal damage score, ZEAMX value = 3

// Pre-emergence herbicidal damage score, ZEAMX value for `COC1=C(C)CN(c2noc(C(C)(C)C)c2C#N)C1=O` : 3

Just so you know, measured Pre-emergence herbicidal damage score, ZEAMX for CNC1=C(Cl)C(=O)N(c2cc(C(C)(C)C)on2)C1O (stereo not shown) came out at 1

Query COC1=C(C)C(=O)N(c2cc(C(C)(C)C#N)on2)C1O (stereo not shown) yields Pre-emergence herbicidal damage score, ZEAMX of 4

Given item COCC(C)(C)c1cc(N2C(=O)C(Cl)=C(C)C2O)no1 (stereo not shown) , the value recorded as its Pre-emergence herbicidal damage score, ZEAMX is 2

Pre-emergence herbicidal damage score, ZEAMX measured on CC1=C(Cl)C(=O)N(c2cc(C3CCCCC3)on2)C1O (stereo not shown) = 0

This collection of values is drawn from patent US9936701B2.
